# TEST_METHOD_NOTES: Solubility test of the compounds
# Assay type: physicochemical
# CONDITION_LABEL: water, 37 ℃, 24 h shaking, 40 rpm, HPLC; read-out: compound solubility
Provide the recorded solubility at 24 h for the entries that follow.
Note: state the figure and append the unit.

Known solubility at 24 h results, listed for orientation:
NC(=O)N1CCc2sc(N3C[C@H](CNC(=O)c4ccc(Cl)s4)OC3=O)cc2C1 [实施例1]: 240 µg/mL
NC(=O)N1CCc2cc(N3C[C@H](CNC(=O)c4ccc(Cl)s4)OC3=O)sc2C1 [实施例3]: 260 µg/mL
CC(=O)N1CCc2sc(N3C[C@H](CNC(=O)c4ccc(Cl)s4)OC3=O)cc2C1 [实施例2]: 110 µg/mL
O=C(NC[C@H]1CN(c2sc3ccccc3c2Cl)C(=O)O1)c1ccc(Cl)s1 [实施例7]: 80 µg/mL

# next compound below
**Query** Give its solubility at 24 h value. Item: CN1CCc2cc(N3C[C@H](CNC(=O)c4ccc(Cl)s4)OC3=O)sc2C1 [实施例6]
**Result** 220 µg/mL

---

Provide the recorded solubility at 24 h for the entries that follow.
# TEST_METHOD_NOTES: Solubility test of the compounds
# Format: physicochemical
# CONDITION_LABEL: water, 37 ℃, 24 h shaking, 40 rpm, HPLC; read-out: compound solubility
One number for each entry, in mg/mL.

CC(=O)N1CCc2cc(N3C[C@H](CNC(=O)c4ccc(Cl)s4)OC3=O)sc2C1: 0.13

Need solubility at 24 h for each of these compounds.
1. CN1CCc2nc(N3C[C@H](CNC(=O)c4ccc(Cl)s4)OC3=O)sc2C1
2. CN1CCc2nc(C(=O)NCC3COC(=O)N3C(=O)Nc3ccc(Cl)cn3)sc2C1 (stereo not drawn)

**Result**
[0.23, 0.15]
